Provide the recorded pIC50 for the entries that follow.
Biological target: TYK2 (Homo sapiens, UniProt P29597)
Construct: endogenous in cells; host or cells: Molt4 (ATCC CRL-1582) and Ramos (ATCC CRL-1596), mixed lysate 1:2
Sequence (P29597 whole entry): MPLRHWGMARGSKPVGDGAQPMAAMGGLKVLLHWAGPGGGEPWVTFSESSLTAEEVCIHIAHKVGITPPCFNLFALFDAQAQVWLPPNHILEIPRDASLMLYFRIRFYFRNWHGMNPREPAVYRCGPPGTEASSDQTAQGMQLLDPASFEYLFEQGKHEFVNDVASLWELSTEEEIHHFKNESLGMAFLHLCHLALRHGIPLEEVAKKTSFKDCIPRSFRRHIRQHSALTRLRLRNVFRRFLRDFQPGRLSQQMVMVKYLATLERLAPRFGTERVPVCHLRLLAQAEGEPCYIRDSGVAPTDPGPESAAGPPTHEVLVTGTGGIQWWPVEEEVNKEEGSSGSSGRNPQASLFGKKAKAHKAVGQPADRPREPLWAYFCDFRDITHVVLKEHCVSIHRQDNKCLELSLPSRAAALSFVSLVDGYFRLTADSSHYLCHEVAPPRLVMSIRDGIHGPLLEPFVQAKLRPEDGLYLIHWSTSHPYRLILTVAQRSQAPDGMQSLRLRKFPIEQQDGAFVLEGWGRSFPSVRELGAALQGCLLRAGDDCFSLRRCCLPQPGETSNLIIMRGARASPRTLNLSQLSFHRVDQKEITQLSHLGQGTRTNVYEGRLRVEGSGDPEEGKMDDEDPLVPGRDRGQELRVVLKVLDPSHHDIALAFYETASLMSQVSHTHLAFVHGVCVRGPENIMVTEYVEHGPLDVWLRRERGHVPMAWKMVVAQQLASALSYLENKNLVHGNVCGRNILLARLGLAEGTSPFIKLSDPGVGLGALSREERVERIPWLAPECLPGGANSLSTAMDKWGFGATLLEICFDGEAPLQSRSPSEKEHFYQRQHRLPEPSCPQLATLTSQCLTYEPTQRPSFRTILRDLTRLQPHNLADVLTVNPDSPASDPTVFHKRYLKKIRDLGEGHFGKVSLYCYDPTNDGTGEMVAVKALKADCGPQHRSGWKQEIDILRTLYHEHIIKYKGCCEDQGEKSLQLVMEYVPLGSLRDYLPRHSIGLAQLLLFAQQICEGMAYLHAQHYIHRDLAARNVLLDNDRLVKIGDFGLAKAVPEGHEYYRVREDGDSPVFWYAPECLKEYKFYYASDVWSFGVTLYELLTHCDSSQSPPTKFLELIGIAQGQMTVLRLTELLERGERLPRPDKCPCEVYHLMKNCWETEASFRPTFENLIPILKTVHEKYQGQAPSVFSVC
Test: Kinobeads assay, TYK2 (competition binding in mixed Molt4/Ramos cell lysate, dot blot detection)
Settings: Kinobeads assay, Molt4/Ramos lysate; read-out: TYK2 Band (Kinobeads assay potency, IC50)
pIC50: −log10 of the molar value.

> print(dat)
                                   molecule  measurement.kind       reading
1    Cc1cnc(Nc2cnn(C)c2)nc1NCc1cc(F)cc(F)c1             pIC50  7.00 to 8.00
2  CNC(=O)Cn1cc(Nc2ncc(Cl)c(NCc3c(F)ccc(C)c3F)n2)cn1             pIC50  7.00 to 8.00
3  Fc1cccc(F)c1CNc1nc(Nc2cnn(CC(F)F)c2)ncc1Cl             pIC50  6.00 to 7.00
4  CC(C)(C)OC(=O)N1CCN(C(=O)Cn2cc(Nc3ncc(Cl)c(NCc4ccccc4)n3)cn2)CC1             pIC50  6.00 to 7.00

Return reported pIC50 values for all items listed beneath this line.
1. CC(C)NC(=O)Cn1cc(Nc2nccc(NCc3c(F)cncc3F)n2)cn1
2. C[C@H](CO)NC(=O)Cn1cc(Nc2ncc(F)c(NCc3c(F)cc(F)cc3F)n2)cn1
3. Cc1cnc(Nc2cnn(CC(=O)N3CCOCC3)c2)nc1NCc1c(F)cccc1F
4. CN(Cc1cccc(CNc2nc(Nc3cnn(CC(=O)N4CCOCC4)c3)ncc2Cl)c1)S(C)(=O)=O

-- reply
1. ≥ 8.00
2. 7.00 to 8.00
3. ≥ 8.00
4. 6.00 to 7.00

Return reported pIC50 values for all items listed beneath this line.
1. O=C(Cn1cc(Nc2ncc(Cl)c(NCc3ccccc3)n2)cn1)N1CC2(COC2)C1
2. OCCn1cc(Nc2ncc(Cl)c(NCc3cccc(F)c3)n2)cn1
3. N#Cc1cccc(CNc2nc(Nc3cnn(CCO)c3)ncc2F)c1
4. O=C(Cn1cc(Nc2ncc(Cl)c(NCc3ccccc3)n2)cn1)N1CC2CCC1CN2 (centres unmarked)
5. OCCn1cc(Nc2ncc(F)c(NCc3cccc(F)c3)n2)cn1

-- reply
["6.00 to 7.00", "7.00 to 8.00", "7.00 to 8.00", "7.00 to 8.00", "7.00 to 8.00"]

Return reported pIC50 values for all items listed beneath this line.
1. CC(O)Cn1cc(Nc2ncc(Cl)c(NCc3ccccc3F)n2)cn1 (centres unmarked)
2. CN(C)C(=O)Cn1cc(Nc2ncc(F)c(NCc3c(F)cc(F)cc3F)n2)cn1
3. CC(C)NC(=O)Cn1cc(Nc2ncc(F)c(NCc3c(F)cc(F)cc3F)n2)cn1

-- reply
1. 6.00 to 7.00
2. 7.00 to 8.00
3. ≥ 8.00

-- ask Suppose we examine the molecule OCCn1cc(Nc2ncc(Cl)c(NCc3cccc(OC(F)F)c3)n2)cn1 ; what pIC50 value has been reported?
-- reply 7.00 to 8.00

---

Provide the recorded pIC50 for the entries that follow.
Molecular target: TYK2 (Homo sapiens, UniProt P29597)
Construct: endogenous in cells; host or cells: Molt4 (ATCC CRL-1582) and Ramos (ATCC CRL-1596), mixed lysate 1:2
Test: Kinobeads assay, TYK2 (competition binding in mixed Molt4/Ramos cell lysate, dot blot detection)
Details: Kinobeads assay, Molt4/Ramos lysate; read-out: TYK2 Band (Kinobeads assay potency, IC50)
pIC50: −log10 of the molar value.

> print(dat)
                                   compound                         study.target       reading
1  Fc1cc(F)cc(CNc2nc(Nc3cnn(CC(F)F)c3)ncc2Cl)c1  TYK2 (Homo sapiens, UniProt P29597)  6.00 to 7.00
2      Cn1cc(Nc2nccc(NCc3c(F)cccc3Cl)n2)cn1  TYK2 (Homo sapiens, UniProt P29597)  7.00 to 8.00
3  Cc1cnc(Nc2cnn(CC(=O)NC3CC3)c2)nc1NCc1cc(F)cc(F)c1F  TYK2 (Homo sapiens, UniProt P29597)  7.00 to 8.00
4  Cn1cc(Nc2ncc(Cl)c(NCc3cc(F)cc(F)c3)n2)cn1  TYK2 (Homo sapiens, UniProt P29597)  7.00 to 8.00
5  NC(=O)Cn1cc(Nc2ncc(Cl)c(NCc3ccccc3)n2)cn1  TYK2 (Homo sapiens, UniProt P29597)  6.00 to 7.00

Return reported pIC50 values for all items listed beneath this line.
1. CC(O)Cn1cc(Nc2ncc(Cl)c(NCc3ccccc3)n2)cn1 (stereo not shown)
2. C[C@@H](CO)NC(=O)Cn1cc(Nc2nccc(NCc3c(F)cncc3F)n2)cn1
3. [2H]C([2H])(O)C([2H])([2H])n1cc(Nc2ncc(Cl)c(NCc3ccccc3)n2)cn1
4. COc1ccc(F)c(CNc2nc(Nc3cnn(CC(=O)NCC(C)C)c3)ncc2Cl)c1F
5. CNC(=O)Cn1cc(Nc2ncc(Cl)c(NCc3cc(S(C)(=O)=O)ccc3OC)n2)cn1
6. COc1cc(F)c(CNc2ccnc(Nc3cnn(CC(=O)NC(C)C)c3)n2)c(F)c1
7. OCCn1cc(Nc2ncc(Cl)c(NCc3cccc(C(F)F)c3)n2)cn1

-- reply
6.00 to 7.00
7.00 to 8.00
6.00 to 7.00
7.00 to 8.00
7.00 to 8.00
7.00 to 8.00
6.00 to 7.00

Return reported pIC50 values for all items listed beneath this line.
1. CNS(=O)(=O)c1cccc(CNc2nc(Nc3cnn(C)c3)ncc2Cl)c1
2. O=C(O)Cn1cc(Nc2ncc(Cl)c(NCc3cc(F)cc(C(F)(F)F)c3)n2)cn1

-- reply
["6.00 to 7.00", "6.00 to 7.00"]

Return reported pIC50 values for all items listed beneath this line.
1. CCNC(=O)c1cccc(CNc2nc(Nc3cnn(CCO)c3)ncc2Cl)c1
2. CN(C)C(=O)Cn1cc(Nc2ncc(Cl)c(NCc3ccccc3S(C)(=O)=O)n2)cn1
3. Cc1cnc(Nc2cnn(CC(=O)N3CCOCC3)c2)nc1NCc1c(F)cc(S(N)(=O)=O)cc1F
4. O=C(Cn1cc(Nc2nccc(NCc3c(F)cccc3Cl)n2)cn1)NCCF
5. CC(C)NC(=O)Cn1cc(Nc2nccc(NCc3c(Cl)cccc3Cl)n2)cn1
6. COc1ccc(F)c(CNc2nc(Nc3cnn(CC(N)=O)c3)ncc2Cl)c1F
7. N#CC1CN(C(=O)Cn2cc(Nc3ncc(Cl)c(NCc4ccccc4)n3)cn2)C1

-- reply
6.00 to 7.00
6.00 to 7.00
≥ 8.00
7.00 to 8.00
7.00 to 8.00
7.00 to 8.00
7.00 to 8.00

Return reported pIC50 values for all items listed beneath this line.
1. Cc1cnc(Nc2cnn(CC(F)F)c2)nc1NCc1cccc(F)c1F
2. OCCn1cc(Nc2ncc(Cl)c(NCc3cc(C(F)(F)F)ccc3F)n2)cn1
3. CNC(=O)Cn1cc(Nc2ncc(Cl)c(NCc3cccc(CS(C)(=O)=O)c3)n2)cn1
4. CC1(C)CN(C(=O)Cn2cc(Nc3ncc(F)c(NCc4c(F)cc(F)cc4F)n3)cn2)CCO1
5. CC(C)NC(=O)Cn1cc(Nc2nccc(NCc3c(F)ccc(C#N)c3F)n2)cn1
6. Cc1cnc(Nc2cnn(C)c2)nc1NCc1c(F)cccc1F
7. O=C(Cn1cc(Nc2ncc(Cl)c(NCc3ccccc3)n2)cn1)N1CC2COCC2C1 (stereo not shown)

-- reply
5.00 to 6.00
7.00 to 8.00
6.00 to 7.00
7.00 to 8.00
≥ 8.00
7.00 to 8.00
7.00 to 8.00

Source listed as patent US9296725B2.
